- MEASURED_TARGET: human recombinant COX2 (hCOX2)
- Sequence (P35354 1-604): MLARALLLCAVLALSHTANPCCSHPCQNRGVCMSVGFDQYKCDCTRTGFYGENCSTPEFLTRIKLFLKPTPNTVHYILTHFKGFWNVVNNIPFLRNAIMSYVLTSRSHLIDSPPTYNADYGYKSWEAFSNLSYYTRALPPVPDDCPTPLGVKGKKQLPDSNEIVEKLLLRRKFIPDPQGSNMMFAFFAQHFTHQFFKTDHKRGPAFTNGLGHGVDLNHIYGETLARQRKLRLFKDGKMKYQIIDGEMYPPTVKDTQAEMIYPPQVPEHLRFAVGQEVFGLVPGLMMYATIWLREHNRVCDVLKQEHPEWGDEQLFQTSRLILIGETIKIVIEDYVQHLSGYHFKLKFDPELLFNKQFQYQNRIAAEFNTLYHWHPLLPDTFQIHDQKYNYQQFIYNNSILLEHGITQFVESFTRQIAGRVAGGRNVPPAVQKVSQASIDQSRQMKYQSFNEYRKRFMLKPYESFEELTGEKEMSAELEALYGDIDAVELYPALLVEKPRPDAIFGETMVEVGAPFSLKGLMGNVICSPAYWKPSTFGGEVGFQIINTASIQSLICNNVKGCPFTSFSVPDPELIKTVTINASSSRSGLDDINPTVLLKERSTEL
- ASSAY_COMMENT: LCMS-based COX2 enzymatic inhibition assay (PGE2 quantification)
- Type: biochemical
- Parameters: COX2 2 minutes pge2/pge2d4 area ratio Avg; other: 2 minutes; readout pge2/pge2d4 area ratio; average; COX2 2 minutes pge2/pge2d4 area ratio Avg; LLE; average LLE; COX2 2 minutes pge2 area (counts) Avg; readout pge2 area (counts); other: 2 min; "ovine COX2 (oCOX2), human recombinant COX2 (hCOX2)"
- CONDITION_LABEL: 2 minutes; readout pge2 area (counts); average; read-out: COX2 2 minutes pge2 area (counts) Avg. IC50
READOUT_LABEL: IC50 (nM)

Sample answers from the record:
In [3]: df
Out[3]:
                                chem_smiles  endpoint_result
0  Cc1ncc(-c2ccc(S(C)(=O)=O)cc2)nc1OCc1cccs1             20.6
1  CS(=O)(=O)c1ccc(-c2nc(NCc3ccco3)ccc2F)cc1             1720
2  CS(=O)(=O)c1ccc(-c2cncc(NCc3cccs3)n2)c(O)c1              215
3  CS(=O)(=O)c1ccc(-n2ccc3ccc(/C(=N\O)c4cccs4)nc32)cc1              635
4  CS(=O)(=O)c1ccc(-c2coc3ccc(NCc4cccs4)nc23)cc1             18.4

(a) CS(=O)(=O)c1ccc(-c2cc(OCc3cccs3)cnn2)cc1
(b) COc1ncc(-c2ccc(S(C)(=O)=O)cc2)nc1NCc1cccs1
Q: Returns the identifier with the smallest measured IC50 among a and b . Lab note: record the label of whichever item you select.
Ans: b

* * *

- MEASURED_TARGET: ovine COX-1 (oCOX-1) (Ovis aries)
- Construct: purchased Cayman Chemicals (Ann Arbor, Mich.)
- Sequence (P05979 25-600): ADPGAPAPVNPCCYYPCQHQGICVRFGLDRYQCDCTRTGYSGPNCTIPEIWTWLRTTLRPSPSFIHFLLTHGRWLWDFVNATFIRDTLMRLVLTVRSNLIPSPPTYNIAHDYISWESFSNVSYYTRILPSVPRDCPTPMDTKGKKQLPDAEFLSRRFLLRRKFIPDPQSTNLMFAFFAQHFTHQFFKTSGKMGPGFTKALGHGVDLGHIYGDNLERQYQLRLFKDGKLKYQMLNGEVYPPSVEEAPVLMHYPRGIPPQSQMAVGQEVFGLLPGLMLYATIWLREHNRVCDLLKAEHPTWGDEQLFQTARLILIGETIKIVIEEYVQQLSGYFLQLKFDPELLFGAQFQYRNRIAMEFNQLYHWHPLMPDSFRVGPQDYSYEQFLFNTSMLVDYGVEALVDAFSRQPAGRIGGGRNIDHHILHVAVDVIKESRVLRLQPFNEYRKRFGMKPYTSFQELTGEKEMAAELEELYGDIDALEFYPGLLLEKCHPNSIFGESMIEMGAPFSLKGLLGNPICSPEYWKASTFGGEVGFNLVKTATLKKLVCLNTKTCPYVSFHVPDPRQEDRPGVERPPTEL
- ASSAY_COMMENT: LCMS-based COX-1 enzymatic inhibition assay (PGE2 quantification)
- Assay type: biochemical
- CONDITION_LABEL: 10 minutes; readout pge2/pge2d4 area ratio; average; read-out: COX1 10 minutes pge2/pge2d4 area ratio Avg. IC50
pIC50: −log10 of the molar value.
READOUT_LABEL: pIC50

Sample answers from the record:
>>> print(df.to_string())
                                   compound  readout_label  endpoint_result
0  CS(=O)(=O)c1ccc(-c2cccc(OCc3cccs3)n2)cc1          pIC50             4.94
1  CS(=O)(=O)c1ccc(-n2ccc3cnc(NCc4cccs4)nc32)cc1          pIC50             4.42
2  CS(=O)(=O)c1ccc(-c2nc(NCc3cccs3)cnc2C(F)(F)F)cc1          pIC50             4.50
3  COc1cc(NCc2cccs2)nc(-c2ccc(S(C)(=O)=O)cc2)c1          pIC50             4.49
4  CS(=O)(=O)c1ccc(-c2cnc3ccn(Cc4ccco4)c3n2)cc1          pIC50             4.77
5  CS(=O)(=O)c1ccc(-c2ccc(F)c(NCc3ccoc3)n2)cc1          pIC50             4.48

(a) C[C@H](Oc1cncc(-c2ccc(S(C)(=O)=O)cc2)n1)c1cccs1 (single isomer, unassigned)
(b) CS(=O)(=O)c1ccc(-c2cccc(/C=C\c3ccoc3)n2)cc1
(c) CS(=O)(=O)c1ccc(-c2cc(F)cc(NCc3ccco3)n2)cc1
Q: Sort by pIC50, descending. Put the labels in the requested order and write them down.
Ans: a, b, c

(A) CS(=O)(=O)c1ccc(-c2cncc(SCc3ccco3)n2)cc1
(B) Cc1ncc(-c2ccc(S(C)(=O)=O)cc2)nc1OCc1cccs1
Q: Returns the identifier with the smallest measured pIC50 among A and B . Lab note: record the label of whichever item you select.
Ans: A
(A: 4.47, B: 6.16)

(a) CS(=O)(=O)c1ccc(-c2cc(F)cc(NCc3ccoc3)n2)cc1
(b) CS(=O)(=O)c1ccc(-c2cccc(NCc3ccc[nH]3)n2)cc1
Q: Returns the identifier with the smallest measured pIC50 among a and b . Lab note: record the label of whichever item you select.
Ans: a
